target: human ROR2 (human, UniProt Q01974 34-403, limits assumed); assay: SPR
Sequence (Q01974 34-403 limits assumed): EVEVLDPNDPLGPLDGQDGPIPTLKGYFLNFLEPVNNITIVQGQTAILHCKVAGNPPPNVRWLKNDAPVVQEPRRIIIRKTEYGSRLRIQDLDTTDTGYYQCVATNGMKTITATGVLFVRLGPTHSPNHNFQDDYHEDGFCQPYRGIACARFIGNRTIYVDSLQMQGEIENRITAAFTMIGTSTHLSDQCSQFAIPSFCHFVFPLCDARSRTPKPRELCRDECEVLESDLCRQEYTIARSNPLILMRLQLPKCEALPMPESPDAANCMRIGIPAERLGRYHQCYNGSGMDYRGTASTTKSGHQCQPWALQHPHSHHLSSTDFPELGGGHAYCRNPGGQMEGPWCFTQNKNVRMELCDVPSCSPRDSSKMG
Values of Kd strictly less than 0.2 nM map to Met, and values of at least 0.2 nM map to Not met.

BINDER: h6E6-010 (antibody, V domains shown, also called clone 10) VH: EVQLVESGGGLVKPGGSLRLSCAASGFTFSNYGMSWVRQAPGKGLEWVSTISSGGGYTHYVASVKGRFTISRDNAKNSLYLQMNSLRAEDTAVYYCARHPRDFSYAMDYWGQGTTVTVSS VL: EIVMTQSPATLSVSPGERATLSCKASQDVGHYLAWYQQKPGQAPRLLIYWASTRATGIPARFSGSGSGTEFTLTISSLQSEDFAVYYCQQYNIYPWTFGQGTKVEIK
ASSIGNED_LABEL: Not met

BINDER: h6E6-020 (antibody, V domains shown, also called clone 20) VH: EVQLVESGGGLVKPGGSLRLSCAASGFTFSKYGVSWVRQAPGKGLEWVSTISSGGGYTHYAPSVKGRFTISRDNAKNSLYLQMNSLRAEDTAVYYCARHPRDFSYAMDYWGQGTTVTVSS VL: EIVMTQSPATLSVSPGERATLSCKASQDVGHYLAWYQQKPGQAPRLLIYWASTRATGIPARFSGSGSGTEFTLTISSLQSEDFAVYYCQQYNIYPWTFGQGTKVEIK
ASSIGNED_LABEL: Not met

BINDER: h6E6-045 (antibody, V domains shown, also called clone 45) VH: EVQLVESGGGLVKPGGSLRLSCAASGFTFSGYGMSWVRQAPGKGLEWVSTISSGGGYTHYVQSVKGRFTISRDNAKNSLYLQMNSLRAEDTAVYYCARHPRDFSYAMDYWGQGTTVTVSS VL: EIVMTQSPATLSVSPGERATLSCKASQDVGHYVAWYQQKPGQAPRLLIYWASTRATGIPARFSGSGSGTEFTLTISSLQSEDFAVYYCQQYNIYPWTFGQGTKVEIK
ASSIGNED_LABEL: Met

BINDER: h6E6-038 (antibody, V domains shown, also called clone 38) VH: EVQLVESGGGLVKPGGSLRLSCAASGFTFSRYGMSWVRQAPGKGLEWVSTISSGGGYTHYAPSVKGRFTISRDNAKNSLYLQMNSPRAEDTAVYYCARHPRDFSYAQDYWGQGTTVTVSS VL: EIVMTQSPATLSVSPGERATLSCKASQDVGHYLAWYQQKPGQAPRLLIYWASTRHTGIPARFSGSGSGTEFTLTISSLQSEDFAVYYCQQYNIYPWTFGQGTKVEIK
ASSIGNED_LABEL: Met

BINDER: h6E6-040 (antibody, human IgG1, V domains shown, human IgG1; also called clone 40) VH: EVQLVESGGGLVKPGGSLRLSCAASGFTFSSYGHSWVRQAPGKGLEWVSTISSGGGYTHYAPSVKGRFTISRDNAKNSLYLQMNSLRAEDTAVYYCARHPRDFSYAHDYWGQGTTVTVSS VL: EIVMTQSPATLSVSPGERATLSCRASQDVGHYVAWYQQKPGQAPRLLIYWASTRATGIPARFSGSGSGTEFTLTISSLQSEDFAVYYCQQYNIYPWTFGQGTKVEIK
ASSIGNED_LABEL: Met

BINDER: h6E6-109 (antibody, V domains shown, also called clone 109) VH: EVQLVESGGGLVKPGGSLRLSCAASGFTFSNYGTSWVRQAPGKGLEWVSTISSGGGYTHYVTSVKGRFTISRDNAKNSLYLQMNSLRAEDTAVYYCARHPRDFSYAMDYWGQGTTVTVSS VL: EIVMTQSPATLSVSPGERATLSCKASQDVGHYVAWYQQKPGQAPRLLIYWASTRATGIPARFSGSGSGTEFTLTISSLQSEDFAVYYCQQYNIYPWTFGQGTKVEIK
ASSIGNED_LABEL: Met

BINDER: h6E6-029 (antibody, human IgG1, V domains shown, human IgG1; also called clone 29) VH: EVQLVESGGGLVKPGGSLRLSCAASGFTFSHYGVSWVRQAPGKGLEWVSTISSGGGYTHYAQSVKGRFTISRDNAKNSLYLQMNSLRAEDTAVYYCARHPRDFSYAQDYWGQGTTVTVSS VL: EIVMTQSPATLSVSPGERATLSCKASQDVGHYVAWYQQKPGQAPRLLIYWASTRHTGIPARFSGSGSGTEFTLTISSLQSEDFAVYYCQQYNIYPWTFGQGTKVEIK
ASSIGNED_LABEL: Met

BINDER: h6E6-099 (antibody, V domains shown, also called clone 99) VH: EVQLVESGGGLVKPGGSLRLSCAASGFTFSNYGMNWVRQAPGKGLEWVSTISSGGGYTHYAPSVKGRFTISRDNAKNSLYLQMNSLRAEDTAVYYCARHPRDFSYAMDYWGQGTTVTVSS VL: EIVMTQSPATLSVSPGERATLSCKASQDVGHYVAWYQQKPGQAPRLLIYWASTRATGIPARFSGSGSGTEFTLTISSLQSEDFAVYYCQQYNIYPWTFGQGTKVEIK
ASSIGNED_LABEL: Not met

BINDER: h6E6-058 (antibody, human IgG1, V domains shown, human IgG1; also called clone 58) VH: EVQLVESGGGLVKPGGSLRLSCAASGFTFSVYGLSWVRQAPGKGLEWVSTISSGGGYTQYAPSVKGRFTISRDNAKNSLYLQMNSLRAEDTAVYYCARHPRDFSYAFDYWGQGTTVTVSS VL: EIVMTQSPATLSVSPGERATLSCKASQDVGHYLAWYQQKPGQAPRLLIYWASTRATGIPARFSGSGSGTEFTLTISSLQSEDFAVYYCQQYNIYPWTFGQGTKVEIK
ASSIGNED_LABEL: Met

BINDER: h6E6-062 (antibody, V domains shown, also called clone 62) VH: EVQLVESGGGLVKPGGSLRLSCAASGFTFSSYGHSWVRQAPGKGLEWVSTISSGGGYTYYAESVKGRFTISRDNAKNSLYLQMNSLRAEDTAVYYCARHPRDFSYAHDYWGQGTTVTVSS VL: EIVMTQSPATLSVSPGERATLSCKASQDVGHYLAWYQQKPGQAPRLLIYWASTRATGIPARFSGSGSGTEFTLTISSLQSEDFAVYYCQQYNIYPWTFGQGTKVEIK
ASSIGNED_LABEL: Not met
